Data credit: the kinase profiling compilation of Christmann-Franck et al. (2016)

TESTED TARGET: DAPK1 (human) (UniProt P53355)
Sequence (P53355 whole entry, looked up): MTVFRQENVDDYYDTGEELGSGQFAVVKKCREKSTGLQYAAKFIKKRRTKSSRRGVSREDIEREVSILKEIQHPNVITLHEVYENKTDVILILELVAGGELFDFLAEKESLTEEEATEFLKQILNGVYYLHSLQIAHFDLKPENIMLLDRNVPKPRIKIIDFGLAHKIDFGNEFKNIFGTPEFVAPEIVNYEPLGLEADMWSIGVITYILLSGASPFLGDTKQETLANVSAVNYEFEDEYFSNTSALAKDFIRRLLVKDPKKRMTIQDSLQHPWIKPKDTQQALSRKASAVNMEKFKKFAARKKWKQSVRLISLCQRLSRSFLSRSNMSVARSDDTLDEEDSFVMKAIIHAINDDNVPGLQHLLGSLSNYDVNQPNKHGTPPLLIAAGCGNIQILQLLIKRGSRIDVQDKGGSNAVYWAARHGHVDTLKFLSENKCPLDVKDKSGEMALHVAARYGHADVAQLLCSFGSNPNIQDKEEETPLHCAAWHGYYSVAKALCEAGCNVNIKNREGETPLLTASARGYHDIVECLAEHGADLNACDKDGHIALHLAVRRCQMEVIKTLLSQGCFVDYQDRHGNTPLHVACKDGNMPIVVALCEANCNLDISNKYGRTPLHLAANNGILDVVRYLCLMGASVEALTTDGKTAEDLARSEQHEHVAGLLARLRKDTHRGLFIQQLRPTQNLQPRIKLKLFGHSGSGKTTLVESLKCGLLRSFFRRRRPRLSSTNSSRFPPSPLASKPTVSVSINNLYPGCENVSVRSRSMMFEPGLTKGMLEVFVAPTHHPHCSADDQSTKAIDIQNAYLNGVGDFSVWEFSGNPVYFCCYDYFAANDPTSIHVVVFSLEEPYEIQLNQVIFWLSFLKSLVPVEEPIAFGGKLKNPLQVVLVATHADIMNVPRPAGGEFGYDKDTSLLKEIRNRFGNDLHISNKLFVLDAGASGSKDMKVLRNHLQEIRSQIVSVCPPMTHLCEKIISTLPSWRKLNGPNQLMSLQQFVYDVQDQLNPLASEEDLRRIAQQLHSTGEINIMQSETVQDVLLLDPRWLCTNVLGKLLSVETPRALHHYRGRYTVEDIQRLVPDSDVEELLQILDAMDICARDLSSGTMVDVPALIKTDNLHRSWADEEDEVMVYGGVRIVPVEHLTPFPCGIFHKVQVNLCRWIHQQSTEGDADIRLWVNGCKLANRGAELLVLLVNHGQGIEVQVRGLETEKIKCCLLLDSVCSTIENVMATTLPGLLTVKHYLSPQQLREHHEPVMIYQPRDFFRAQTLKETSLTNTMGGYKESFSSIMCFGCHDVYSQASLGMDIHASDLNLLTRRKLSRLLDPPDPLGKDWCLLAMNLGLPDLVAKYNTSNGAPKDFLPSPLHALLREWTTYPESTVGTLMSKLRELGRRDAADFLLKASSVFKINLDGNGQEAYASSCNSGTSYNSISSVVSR
ASSAY PROCEDURE: radiometric filter-binding kinase assay
EXPERIMENTAL PARAMETERS: compound 10.0 µM
Listed next: entries and their corresponding residual activity.
MEASUREMENT KIND: residual activity (%)

{"COMPOUND": "FC(F)(F)c1ccc(-c2ccc(Oc3cncc4sc(-c5nn[nH]n5)cc34)cc2)cc1", "TESTED TARGET": "DAPK1 (human) (UniProt P53355)", "MEASUREMENT UNIT": "%", "OBS VALUE": 17}
{"COMPOUND": "O=C(N[C@@H](COc1ccc2[nH]c(=O)[nH]c2c1)c1ccccc1)c1cccn(Cc2ccc(F)c(F)c2)c1=O", "TESTED TARGET": "DAPK1 (human) (UniProt P53355)", "MEASUREMENT UNIT": "%", "OBS VALUE": 91}
{"COMPOUND": "c1ccc2c(-c3cnn4cc(-c5ccc(N6CCNCC6)cc5)cnc34)ccnc2c1", "TESTED TARGET": "DAPK1 (human) (UniProt P53355)", "MEASUREMENT UNIT": "%", "OBS VALUE": 72}
{"COMPOUND": "O=C(NOC[C@H](O)CO)c1ccc(F)c(F)c1Nc1ccc(I)cc1Cl", "TESTED TARGET": "DAPK1 (human) (UniProt P53355)", "MEASUREMENT UNIT": "%", "OBS VALUE": 90}
{"COMPOUND": "NC(=O)c1cc2c(-c3cccc(-c4ccccc4)c3)cnc(N)c2s1", "TESTED TARGET": "DAPK1 (human) (UniProt P53355)", "MEASUREMENT UNIT": "%", "OBS VALUE": 10}
{"COMPOUND": "Nc1cccc2c1CN(C1CCC(=O)NC1=O)C2=O (stereo not given)", "TESTED TARGET": "DAPK1 (human) (UniProt P53355)", "MEASUREMENT UNIT": "%", "OBS VALUE": 104}
{"COMPOUND": "Cc1ccc(=O)n(-c2ccccc2)c1", "TESTED TARGET": "DAPK1 (human) (UniProt P53355)", "MEASUREMENT UNIT": "%", "OBS VALUE": 100}
{"COMPOUND": "O=C(Nc1ccccc1-c1cn2c(CN3CCNCC3)csc2n1)c1cnc2ccccc2n1", "TESTED TARGET": "DAPK1 (human) (UniProt P53355)", "MEASUREMENT UNIT": "%", "OBS VALUE": 25}
{"COMPOUND": "O=C(NOCC(O)CO)c1ccc(F)c(F)c1Nc1ccc(I)cc1Cl (stereo not given)", "TESTED TARGET": "DAPK1 (human) (UniProt P53355)", "MEASUREMENT UNIT": "%", "OBS VALUE": 98}
{"COMPOUND": "NCC(=O)Nc1ccc(-n2nc(C(F)(F)F)cc2-c2ccc3c(ccc4ccccc43)c2)cc1", "TESTED TARGET": "DAPK1 (human) (UniProt P53355)", "MEASUREMENT UNIT": "%", "OBS VALUE": 43}
